biological target: chemokine receptor 1 (CCR1) (UniProt P56482 1-355); experiment: competition with 125I-Rantes binding to CCR1
Sequence (P56482 whole entry): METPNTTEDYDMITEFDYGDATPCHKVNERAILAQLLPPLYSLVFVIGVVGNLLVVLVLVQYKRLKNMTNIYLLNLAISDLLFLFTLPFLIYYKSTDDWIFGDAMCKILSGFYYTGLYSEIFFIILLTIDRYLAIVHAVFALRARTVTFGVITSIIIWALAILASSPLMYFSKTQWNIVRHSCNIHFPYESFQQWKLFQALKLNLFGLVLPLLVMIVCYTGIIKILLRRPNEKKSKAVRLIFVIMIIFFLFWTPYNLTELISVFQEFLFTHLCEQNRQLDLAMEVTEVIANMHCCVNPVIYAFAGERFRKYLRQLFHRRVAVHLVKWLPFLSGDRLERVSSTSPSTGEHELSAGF
recorded_metric: pKi
On this scale, pKi is minus log10 of a concentration expressed in M (mol/L).

So for PHC-1 (HCC-1[9-74]) (ligand, Purified from human hemofiltrate or made by tryptic digestion of HCC-1 1-74; also called processed chemokine PHC-1; HCC-1, residues 9-74) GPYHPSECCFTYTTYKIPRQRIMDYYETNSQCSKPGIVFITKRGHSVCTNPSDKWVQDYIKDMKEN , the logged pKi turned out to be 4.64
